Below is a list of entries, each paired with its recorded Average AUC value.
# System: Mustela putorius furo
# assayMethodText: Average area under curve value dosed at 10 mg/kg, id in ferrets.
# conditionContext: ferret, in vivo, other
Number in ng·h/mL, nothing else.

Study these solved cases before continuing.
> print(dat)
                            structurestring  reported
1  CCCC[C@H](O[C@@H](Cc1ccccc1)C(=O)N1CCC(OCOC)CC1)C(=O)N[C@@H](CC1CCCCC1)[C@@H](O)C[C@H](C(=O)NCCCN(C)C)C(C)C      9670
2  CCCC[C@H](N[C@@H](Cc1ccccc1)C(=O)N1CCC(OCOC)CC1)C(=O)N[C@@H](CC1CCCCC1)[C@@H](O)C[C@H](NC(=O)OCCN(C)C)C(C)C      5050

Task item: Please indicate recorded Average AUC of CCCC[C@H](N[C@@H](Cc1ccccc1)C(=O)N1CCC(OCOC)CC1)C(=O)N[C@@H](CC1CCCCC1)[C@@H](O)C[C@H](C(=O)NCCCN1CCOCC1)C(C)C measured with Mustela putorius furo.
Reply: 7700

Task item: Please indicate recorded Average AUC of CCCCNC(=O)[C@@H](C[C@H](O)[C@H](CC1CCCCC1)NC(=O)[C@H](CCCC)N[C@@H](Cc1ccccc1)C(=O)N1CCC(OCOC)CC1)C(C)C measured with Mustela putorius furo.
Reply: 3530

Task item: Please indicate recorded Average AUC of CCCC[C@H](O[C@@H](Cc1ccccc1)C(=O)N1CCC(OCOC)CC1)C(=O)N[C@@H](CC1CCCCC1)[C@@H](O)C[C@H](NC(=O)OCCN(C)C)C(C)C measured with Mustela putorius furo.
Reply: 2780

Task item: Please indicate recorded Average AUC of CCCC[C@H](O[C@@H](Cc1ccccc1)C(=O)N1CCC(OCOC)CC1)C(=O)N[C@@H](CC1CCCCC1)[C@@H](O)C[C@H](C(=O)NCCCn1ccnc1)C(C)C measured with Mustela putorius furo.
Reply: 3380

Task item: Please indicate recorded Average AUC of CCCC[C@H](O[C@@H](Cc1ccccc1)C(=O)N1CCC(OCOC)CC1)C(=O)N[C@@H](CC1CCCCC1)[C@@H](O)C[C@H](C(=O)NCCN1CCOCC1)C(C)C measured with Mustela putorius furo.
Reply: 7080

---

# tgt: Renin (Homo sapiens, UniProt P00797)
# Sequence (P00797 whole entry): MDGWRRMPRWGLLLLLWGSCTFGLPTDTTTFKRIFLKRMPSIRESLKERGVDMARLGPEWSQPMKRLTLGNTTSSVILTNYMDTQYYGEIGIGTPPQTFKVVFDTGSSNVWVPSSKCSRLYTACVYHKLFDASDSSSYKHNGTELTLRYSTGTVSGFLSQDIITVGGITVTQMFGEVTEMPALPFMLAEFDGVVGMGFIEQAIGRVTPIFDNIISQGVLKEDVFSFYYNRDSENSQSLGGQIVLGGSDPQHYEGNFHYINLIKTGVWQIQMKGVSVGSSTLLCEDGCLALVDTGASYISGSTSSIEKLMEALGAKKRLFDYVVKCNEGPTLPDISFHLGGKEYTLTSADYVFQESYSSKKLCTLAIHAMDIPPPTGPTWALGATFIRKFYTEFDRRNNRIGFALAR
# Assay type: cell-free, Plasma
Below is a list of entries, each paired with its recorded pIC50 value.
Keep it numeric: pIC50 is minus log10 of the concentration in mol/L.

Study these solved cases before continuing.
> print(dat)
                            structurestring  recordedendpoint  reported
1  CCCOC(=O)N[C@@H](C[C@H](O)[C@H](CC1CCCCC1)NC(=O)[C@H](Cc1cnc[nH]1)NC(=O)[C@H](Cc1ccccc1)NC(=O)OC(C)(C)C)C(C)C             pIC50      7.80
2  CCCC[C@H](O[C@@H](Cc1ccccc1)C(=O)N1CCC(OCOC)CC1)C(=O)N[C@@H](CC1CCCCC1)[C@@H](O)C[C@H](NC(=O)OCCC)C(C)C             pIC50      7.85
3  CCCC[C@H](N[C@@H](Cc1ccccc1)C(=O)N1CCC(OCOC)CC1)C(=O)N[C@@H](CC1CCCCC1)[C@@H](O)C[C@H](NC(=O)OCCN1CCOCC1)C(C)C             pIC50      8.02
4  CCCC[C@H](N[C@@H](Cc1ccccc1)C(=O)N1CCC(OCOC)CC1)C(=O)N[C@@H](CC1CCCCC1)[C@@H](O)C[C@H](NC(=O)OCCN(C)C)C(C)C             pIC50      7.92
5  CCCC[C@H](O[C@@H](Cc1ccccc1)C(=O)N1CCC(OCOC)CC1)C(=O)N[C@@H](CC1CCCCC1)[C@@H](O)C[C@H](NS(C)(=O)=O)C(C)C             pIC50      7.21

Task item: Retrieve pIC50 measured for CCCC[C@H](O[C@@H](Cc1ccccc1)C(=O)N1CCC(OCOC)CC1)C(=O)N[C@@H](CC1CCCCC1)[C@@H](O)C[C@H](C(=O)NCCC[N+]1([O-])CCOCC1)C(C)C and print it.
Reply: 8.46

Task item: Retrieve pIC50 measured for CC(C)[C@H](C[C@H](O)[C@H](CC1CCCCC1)NC(=O)[C@H](Cc1cnc[nH]1)NC(=O)[C@H](Cc1ccccc1)NC(=O)OC(C)(C)C)NC(=O)OCCN1CCOCC1 and print it.
Reply: 8.33

Task item: Retrieve pIC50 measured for CCCC[C@H](O[C@@H](Cc1ccccc1)C(=O)N1CCC(OCOC)CC1)C(=O)N[C@@H](CC1CCCCC1)[C@@H](O)C[C@H](NC(=O)OCCN1CCOCC1)C(C)C and print it.
Reply: 8.12

Task item: Retrieve pIC50 measured for CCCC[C@H](O[C@@H](Cc1ccccc1)C(=O)N1CCC(OCOC)CC1)C(=O)N[C@@H](CC1CCCCC1)[C@@H](O)C[C@H](NC(=O)OCCc1ccccn1)C(C)C and print it.
Reply: 7.40

Task item: Retrieve pIC50 measured for CC(C)[C@H](C[C@H](O)[C@H](CC1CCCCC1)NC(=O)[C@H](Cc1cnc[nH]1)NC(=O)[C@H](Cc1ccccc1)NC(=O)OC(C)(C)C)NC(=O)OCCCN(C)C and print it.
Reply: 7.77

Task item: Retrieve pIC50 measured for CCCC[C@H](O[C@@H](Cc1ccccc1)C(=O)N1CCC(OCOC)CC1)C(=O)N[C@@H](CC1CCCCC1)[C@@H](O)C[C@H](NC(=O)OCCC(C)C)C(C)C and print it.
Reply: 7.25

Task item: Retrieve pIC50 measured for CCCC[C@H](O[C@@H](Cc1ccccc1)C(=O)N1CCC(OCOC)CC1)C(=O)N[C@@H](CC1CCCCC1)[C@@H](O)C[C@H](C(=O)NCCCn1ccnc1)C(C)C and print it.
Reply: 8.52
